tgt: HSA (Homo sapiens, UniProt P02768)
Construct: purchased Chromtech (Cheshire, UK)
Sequence (P02768 25-609): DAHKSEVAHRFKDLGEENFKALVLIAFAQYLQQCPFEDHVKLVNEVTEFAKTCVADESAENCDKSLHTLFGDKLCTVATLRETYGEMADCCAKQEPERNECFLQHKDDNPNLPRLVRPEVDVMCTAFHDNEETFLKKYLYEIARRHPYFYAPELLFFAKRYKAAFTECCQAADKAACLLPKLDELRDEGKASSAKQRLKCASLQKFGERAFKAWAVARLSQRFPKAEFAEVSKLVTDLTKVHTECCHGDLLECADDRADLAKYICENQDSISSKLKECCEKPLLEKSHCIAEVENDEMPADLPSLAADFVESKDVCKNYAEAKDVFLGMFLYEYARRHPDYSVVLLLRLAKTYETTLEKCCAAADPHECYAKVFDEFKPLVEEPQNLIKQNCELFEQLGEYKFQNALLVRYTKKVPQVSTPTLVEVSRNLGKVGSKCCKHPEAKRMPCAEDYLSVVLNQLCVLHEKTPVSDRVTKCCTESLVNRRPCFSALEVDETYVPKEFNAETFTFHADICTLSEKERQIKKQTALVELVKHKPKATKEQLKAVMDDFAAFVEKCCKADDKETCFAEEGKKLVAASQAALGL
assay explanation: HSA binding by immobilised HSA HPLC column
Assay type: in vitro ADME
study conditions: HSA column, derived from the calibration curve, typical data

| compound | tgt | logK measured |
| --- | --- | --- |
| NC(=O)N1c2ccccc2C=Cc2ccccc21 [Carbamazepine] | HSA (Homo sapiens, UniProt P02768) | 0.50 |
| COC(=O)C1=C(C)NC(C)=C(C(=O)OCCN(C)Cc2ccccc2)C1c1cccc([N+](=O)[O-])c1 (stereo not drawn) | HSA (Homo sapiens, UniProt P02768) | 1.38 |
| CN1C(C(=O)Nc2ccccn2)=C(O)c2ccccc2S1(=O)=O | HSA (Homo sapiens, UniProt P02768) | 1.10 |
| CNC(=C[N+](=O)[O-])NCCSCc1csc(CN(C)C)n1 | HSA (Homo sapiens, UniProt P02768) | −0.35 |
| CCCC1O[C@@H]2C[C@H]3[C@@H]4CCC5=CC(=O)C=C[C@]5(C)[C@H]4[C@@H](O)C[C@]3(C)[C@]2(C(=O)CO)O1 (stereo partly drawn) [Budesonide] | HSA (Homo sapiens, UniProt P02768) | 0.70 |
| O=C1CN=C(c2ccccn2)c2cc(Br)ccc2N1 | HSA (Homo sapiens, UniProt P02768) | 0.38 |
